# Experiment: Toxicity test in mice (LD50, Litchfield-Wilcoxon method)
# Run parameters: mouse, in vivo, po; mortality during 7 days; ddY male mice; read-out: 50% lethal dose (LD50)
Quantity kind: LD50 at 168 h

Reference set (4 entries):
Compound	Quantity kind	Result
CC(C)COc1ccccc1Nc1ncc(C(=O)O)c(=O)[nH]1	LD50 at 168 h	> 3000 mg/kg
CCCCOc1ccccc1Nc1ncc(C(=O)O)c(=O)[nH]1	LD50 at 168 h	> 3000 mg/kg
CCCOc1ccccc1Nc1ncc(C(=O)O)c(=O)[nH]1	LD50 at 168 h	> 3000 mg/kg
CCOc1ccccc1Nc1ncc(C(=O)O)c(=O)[nH]1	LD50 at 168 h	> 3000 mg/kg

May I ask what LD50 at 168 h has been recorded for COc1ccc(/C=C/C(=O)Nc2ccccc2C(=O)O)cc1OC [Tranilast, reference compound] ?
780 mg/kg

###

Listed here: items and their measured LD50 at 168 h.
# Experiment: Toxicity test in mice (LD50, Litchfield-Wilcoxon method)
# Run parameters: mouse, in vivo, ip; mortality during 7 days; ddY male mice; read-out: 50% lethal dose (LD50)
I only need the number, in mg/kg, no unit after it.

Check out these entries, answers already filled in.
Molecule	Quantity kind	Display unit	Measured number
COc1ccc(/C=C/C(=O)Nc2ccccc2C(=O)O)cc1OC [Tranilast, reference compound]	LD50 at 168 h	mg/kg	430
CC(C)COc1ccccc1Nc1ncc(C(=O)O)c(=O)[nH]1 [Example 52]	LD50 at 168 h	mg/kg	780
CCCOc1ccccc1Nc1ncc(C(=O)O)c(=O)[nH]1 [Example 49]	LD50 at 168 h	mg/kg	1160

Bench note: what LD50 at 168 h did CCCCOc1ccccc1Nc1ncc(C(=O)O)c(=O)[nH]1 [Example 51] show?
1230
